Method: Quantitative highthroughput screen to assess conditional lethalithy of NOMO1 cells grown in Human Plasma-Like Medium with dialyzed fetal bovine serum (HPLM+ds) (AID 1963878); also: nearly all actives have a fitted effect of over 35% in size
Assay Context: NOMO1 AML cells in HPLM+ds, CellTiter-Glo viability, 48 h; series mostly up to 45.8 µM
Results filed as inconclusive are left out. Calls of active or inactive are those of the source. Calls follow the shape of the dose curve; as a rule, active = well fitted cell-killing curve with a large enough effect; inconclusive = small, poorly fitted or top-dose-only effect, or effect the other way; inactive = no such curve, though single readings can be large or run the other way.
Tick one outcome: active, inactive

Would you please look over these solved cases?
Compound	Assigned Label
CN(C)c1nc(Cc2ccc(NC(=O)c3ccc(C(F)(F)F)cc3)cc2)nc(N(C)C)c1CC(=O)O	inactive
O=C(O)C[C@H](O)C[C@H](O)C=Cc1c(C2CC2)nc2ccccc2c1-c1ccc(F)cc1	active
COc1ccc(-c2cc(=O)c3c(O)cc(O[C@@H]4O[C@H](CO[C@@H]5O[C@@H](C)[C@H](O)[C@@H](O)[C@@H]5O)[C@@H](O)[C@H](O)[C@@H]4O)cc3o2)cc1O	inactive
Cc1ccc2c(c1)C(=O)[C@]1(O)CCN(c3ccccc3)C1=N2	inactive
Cc1[nH]c2ccccc2c1CCNCc1ccc(C=CC(=O)NO)cc1	active
COc1ncc(-c2ccc3c(Nc4cc(Oc5cc(F)cc(F)c5)cc(C(=O)O)c4)c(S(=O)(=O)NC4CC4)cnc3c2)c(OC)n1	inactive

For Cc1oncc1C(=O)Nc1ccc(C(F)(F)F)cc1 , which call appears in the assay record?
inactive

For C=CC(=O)Nc1cccc(Oc2nc(Nc3ccc(N4CCN(C)CC4)cc3)ncc2Cl)c1 , which call appears in the assay record?
inactive

For c1nc2nc(Nc3ccc(N4CCOCC4)cc3)nc(NC3CCCCC3)c2[nH]1 , which call appears in the assay record?
active

For O=C(C=Cc1cccnc1)NCCCCC1CCN(C(=O)c2ccccc2)CC1 , which call appears in the assay record?
active

For CC1(O)CC(c2nc(-c3ccc4ccc(-c5ccccc5)nc4c3)c3c(N)nccn23)C1 (stereo not drawn) , which call appears in the assay record?
active

For CC(=O)OCC(CCn1cnc2cnc(N)nc21)COC(C)=O , which call appears in the assay record?
inactive

For COc1ccc([C@@H]2CC(=O)c3c(O)cc(O[C@@H]4O[C@H](CO[C@@H]5O[C@@H](C)[C@H](O)[C@@H](O)[C@@H]5O)[C@@H](O)[C@H](O)[C@@H]4O)cc3O2)cc1O , which call appears in the assay record?
inactive

For O=C1Nc2ccc(Cl)cc2C(C#CC2CC2)(C(F)(F)F)O1 (stereo not drawn) , which call appears in the assay record?
inactive

Ref: PubChem BioAssay (NCATS)
